The reported numbers originate from the supplement of paper PMC4862054.

- Tested on: MCF-10A
- Test: normalised response (% of control), CellTiter-Glo; higher = more viable cells (100 = DMSO, 0 = benzethonium chloride kill control)
- Experimental setup: incubation time: 72 h
Items are presented alongside their recorded normalised response.
Express the result in % but write the number alone.

Answered cases to consult:
{"columns": ["Compound", "normalised response, %"],
 "data": [
  ["N#Cc1ccc(COC[C@H]2O[C@@H](n3c(NCc4ccc(Cl)c(Cl)c4)nc4c(N)ncnc43)[C@H](O)[C@@H]2O)cc1 (100 nM)", 102],
  ["C=C1C[C@@H]2[C@H](CC[C@]3(C)C(=O)CC[C@@H]23)[C@@]2(C)C=CC(=O)C=C12 [Exemestane] (100 nM)", 110],
  ["Cc1cc(Nc2cc(CN3CCOCC3)c3nc(C)c(Cc4ccc(Cl)cc4F)n3n2)n[nH]1 [Gandotinib] (100 nM)", 105],
  ["Cc1ccc(NC(=O)c2ccc(CN3CCN(C)CC3)cc2)cc1Nc1nc(-c2cccnc2)cs1 [Masitinib] (100 nM)", 91.6],
  ["O=C(Nc1cccnc1)N1CCC(Cc2cccc(Oc3ccc(C(F)(F)F)cn3)c2)CC1 [PF-3845] (100 nM)", 112],
  ["CO[C@H]1C[C@@H]2CC[C@@H](C)[C@@](O)(O2)C(=O)C(=O)N2CCCC[C@H]2C(=O)O[C@H]([C@H](C)C[C@@H]2CC[C@@H](OP(C)(C)=O)[C@H](OC)C2)CC(=O)[C@H](C)/C=C(\\C)[C@@H](O)[C@@H](OC)C(=O)[C@H](C)C[C@H](C)/C=C/C=C/C=C/1C [Ridaforolimus] (1 nM)", 107]
]}

# input Item NC(=O)c1ccc(I)c([N+](=O)[O-])c1 [Iniparib] (100 nM) : provide normalised response
# output 76.1

# input Item O=C(Nc1ccncc1)C(=O)c1cn(Cc2ccc(Cl)cc2)c2ccccc12 [Indibulin] (100 nM) : provide normalised response
# output 108

# input Item COC(=O)c1ccc2c(c1)NC(=O)/C2=C(\Nc1ccc(N(C)C(=O)CN2CCN(C)CC2)cc1)c1ccccc1 [Nintedanib] (100 nM) : provide normalised response
# output 93.4

# input Item S=P(N1CC1)(N1CC1)N1CC1 [Thio-TEPA] (500 nM) : provide normalised response
# output 106

# input Item COc1cc2c(NC3CCN(C(C)C)CC3)nc(N3CCC(F)(F)CC3)nc2cc1OCCCN1CCCC1 [UNC0642] (100 nM) : provide normalised response
# output 94.8

====

- Tested on: HCC1937
- Test: normalised viability (% of control), CellTiter-Blue; higher = more viable cells (about 100 = DMSO control)
- Experimental setup: 100 nM; incubation time: 72 h
Items are presented alongside their recorded normalised viability.
Express the result in % but write the number alone.

{"columns": ["Entry smiles", "normalised viability (%)"],
 "data": [
  ["NC(=O)c1ccc(I)c([N+](=O)[O-])c1", 109],
  ["Nc1cc(C(F)(F)F)c(-c2cc(N3CCOCC3)nc(N3CCOCC3)n2)cn1", 112]
]}

# input Item c1ccc2c(CCNc3ccc(Nc4ccncc4)cc3)c[nH]c2c1 : provide normalised viability
# output 95.2

# input Item CN(C)CCOc1ccc(/C(=C(/CCCl)c2ccccc2)c2ccccc2)cc1 : provide normalised viability
# output 97.5

# input Item CNC(=O)c1cc(Oc2ccc(NC(=O)Nc3ccc(Cl)c(C(F)(F)F)c3)c(F)c2)ccn1 : provide normalised viability
# output 90.4
